target: Glutamate NMDA receptor; experiment: In vitro concentration required to inhibit specific [3H]MK-801 radioligand binding to N-methyl-D-aspartate (NMDA) receptor on rat brain membrane
pIC50: −log10 of the molar value.
Label NO if pIC50 falls below 6; label YES in every other case.

Take a look at these entries with their results.
> print(dat)
                             chemicalsmiles  discretelabel
1    CN(C(N)=Nc1cccc2ccccc12)c1cccc2ccccc12            YES
2        CC(C)c1ccccc1N=C(N)Nc1cccc2ccccc12            YES
3         CCCc1cccc(NC(=N)Nc2cccc(CCC)c2)c1             NO
4           N=C(N1CCc2ccccc21)N1CCc2ccccc21             NO
5  CCN(C(=N)N(C)c1cccc2ccccc12)c1cccc2ccccc12            YES

API: the following record is the query input.
Data request: pIC50 >= 6 for NC(=Nc1cccc2ccccc12)NCc1ccccc1 ?
Data returned: NO
